- Tested on: MG63.3 OS cell line
- assay_notes: 2D growth / cytotoxicity by MTT, MG63.3
- experimental_parameters: human, 72 h
measure_name: doses exhibiting cytotoxicity on 2D growth

# annotated cases, reported doses exhibiting cytotoxicity on 2D growth shown
>  <compound>
CNC(=O)c1cccc(-c2ccc3c(N4CCOC[C@@H]4C)nc(N4CCOC[C@@H]4C)nc3n2)c1 [vistusertib]

>  <assay_value>
> 0.64 nM

$$$$
>  <compound>
O=C(/C=C/c1cccnc1)NCCCCC1CCN(C(=O)c2ccccc2)CC1 [(E)-daporinad]

>  <assay_value>
> 0.1 nM

$$$$
>  <compound>
Cc1[nH]c2ccccc2c1CCNCc1ccc(/C=C/C(=O)NO)cc1 [panobinostat]

>  <assay_value>
≥ 80 nM

$$$$
>  <compound>
Cn1ncnc1[C@H]1c2n[nH]c(=O)c3cc(F)cc(c23)N[C@@H]1c1ccc(F)cc1 [talazoparib]

>  <assay_value>
> 100 nM

$$$$

Pending compound:
*Q* Give doses exhibiting cytotoxicity on 2D growth for the following compound: COc1ccc(-c2ccc3c(N4CCOC[C@@H]4C)nc(N4CCOC[C@@H]4C)nc3n2)cc1CO [AZD8055]
*A* > 100 nM

====

Each entry below carries its reported doses exhibiting cytotoxicity on 2D growth.
- System: MG63.3 OS cell line
- assay_notes: 2D growth / cytotoxicity by MTT, MG63.3
- experimental_parameters: MG63.3, MTT, 72 h, replicates=3

Solved cases (3 shown):
>  <compound>
C=CCNc1c(O)cc2c(O)c1C[C@@H](C)C[C@H](OC)[C@H](O)[C@@H](C)/C=C(\C)[C@H](OC(N)=O)[C@@H](OC)/C=C\C=C(/C)C(=O)N2

>  <measured_on>
MG63.3 OS cell line

>  <assay_value>
> 400 nM

$$$$
>  <compound>
CC(C)[C@]12O[C@H]1[C@@H]1O[C@]13[C@]1(O[C@H]1C[C@H]1C4=C(CC[C@@]13C)C(=O)OC4)[C@@H]2OCOP(=O)(O)O [minnelide]

>  <measured_on>
MG63.3 OS cell line

>  <assay_value>
≥ 0.781 nM

$$$$
>  <compound>
C=CCNC1=C2C[C@@H](C)C[C@H](OC)[C@H](O)[C@@H](C)/C=C(\C)[C@H](OC(N)=O)[C@@H](OC)/C=C\C=C(/C)C(=O)NC(=CC1=O)C2=O

>  <measured_on>
MG63.3 OS cell line

>  <assay_value>
> 25 nM

$$$$

// next item, doses exhibiting cytotoxicity on 2D growth requested
*Q* Supply recorded doses exhibiting cytotoxicity on 2D growth for `CO[C@H]1/C=C\C=C(/C)C(=O)NC2=CC(=O)C(NCCN(C)C)=C(C[C@@H](C)C[C@H](OC)[C@H](O)[C@@H](C)/C=C(\C)[C@@H]1OC(N)=O)C2=O` here.
*A* > 25 nM

====

- Test system: MG63.3 OS cell line
- assay_notes: 2D growth / cytotoxicity by MTT, MG63.3
- experimental_parameters: human, 72 h
measure_name: doses exhibiting cytotoxicity on 2D growth

Previously resolved entries follow.
>  <compound>
Cn1cc(CNCC2CCN(c3ncc(C(=O)NO)cn3)CC2)c2ccccc21 [quisinostat]

>  <assay_value>
≥ 80 nM

$$$$
>  <compound>
O=C(/C=C/c1cccc(S(=O)(=O)Nc2ccccc2)c1)NO [belinostat]

>  <assay_value>
≥ 80 nM

$$$$
>  <compound>
CC1(C)CCC(c2ccc(Cl)cc2)=C(CN2CCN(c3ccc(C(=O)NS(=O)(=O)c4ccc(N[C@H](CCN5CCOCC5)CSc5ccccc5)c(S(=O)(=O)C(F)(F)F)c4)cc3)CC2)C1 [navitoclax]

>  <assay_value>
≥ 1000 nM

$$$$
>  <compound>
COc1cc(Nc2ncc3c(n2)-c2ccc(Cl)cc2C(c2c(F)cccc2OC)=NC3)ccc1C(=O)O [alisertib]

>  <assay_value>
> 25 nM

$$$$
>  <compound>
O=C(NOC[C@H](O)CO)c1ccc(F)c(F)c1Nc1ccc(I)cc1F [PD0325901]

>  <assay_value>
≥ 100 nM

$$$$

*Q* Could you please provide reported doses exhibiting cytotoxicity on 2D growth for CCN(CC)Cc1ccc2cc(COC(=O)Nc3ccc(C(=O)NO)cc3)ccc2c1 [givinostat] ? Thanks!
*A* ≥ 600 nM

*Q* Quickly give me recorded doses exhibiting cytotoxicity on 2D growth for Cn1cc(-c2ccc(S(=O)(=O)n3ccc(/C=C/C(=O)Nc4ccccc4N)c3)cc2)cn1 [domatinostat]
*A* ≥ 200 nM

*Q* Query doses exhibiting cytotoxicity on 2D growth for O=C(Cc1cccc(OC(F)(F)F)c1)Nc1ccc(CCCCc2nnc(NC(=O)Cc3ccccn3)s2)nn1 [telaglenastat]
*A* > 100 nM

====

- Tested on: MG63.3 OS cell line
- assay_notes: 2D growth / cytotoxicity by MTT, MG63.3
- experimental_parameters: human, 72 h
measure_name: doses exhibiting cytotoxicity on 2D growth

Examples with their reported doses exhibiting cytotoxicity on 2D growth follow.
>  <molecule>
CO[C@@H](C(=O)N1Cc2n[nH]c(NC(=O)c3ccc(N4CCN(C)CC4)cc3)c2C1)c1ccccc1 [danusertib]

>  <measured_on>
MG63.3 OS cell line

>  <assay_value>
> 100 nM

$$$$
>  <molecule>
CC(C)n1nc(-c2ccc3oc(N)nc3c2)c2c(N)ncnc21 [sapanisertib]

>  <measured_on>
MG63.3 OS cell line

>  <assay_value>
> 8 nM

$$$$
>  <molecule>
NS(=O)(=O)OC[C@@H]1C[C@@H](n2ccc3c(N[C@H]4CCc5ccccc54)ncnc32)C[C@@H]1O [pevonedistat]

>  <measured_on>
MG63.3 OS cell line

>  <assay_value>
> 10 nM

$$$$
>  <molecule>
CO[C@H]1C[C@@H]2CC[C@@H](C)[C@@](O)(O2)C(=O)C(=O)N2CCCC[C@H]2C(=O)O[C@H]([C@H](C)C[C@@H]2CC[C@@H](OP(C)(C)=O)[C@H](OC)C2)CC(=O)[C@H](C)/C=C(\C)[C@@H](O)[C@@H](OC)C(=O)[C@H](C)C[C@H](C)/C=C/C=C/C=C/1C [ridaforolimus]

>  <measured_on>
MG63.3 OS cell line

>  <assay_value>
> 33000 nM

$$$$
>  <molecule>
COc1c(C)cnc(Cn2cnc3c(Cl)nc(N)nc32)c1C [BIIB021]

>  <measured_on>
MG63.3 OS cell line

>  <assay_value>
> 10 nM

$$$$

*Q* Tell me doses exhibiting cytotoxicity on 2D growth reported for O=C(CC1NCCCC1O)Cn1cnc2cc(Br)c(Cl)cc2c1=O (stereo not shown) [halofuginone]
*A* ≥ 12.5 nM

*Q* Please supply the value of reported doses exhibiting cytotoxicity on 2D growth for the item COc1ccc(-c2nc(N3CCOCC3)c3sc(CN(C)c4ncc(C(=O)NO)cn4)cc3n2)cn1 [fimepinostat]
*A* ≥ 1 nM
